Target: POU2 (OCT2 POU domain);BOB1 (OBF1, OCA-B) (human;human, UniProt P09086;Q16633 175-386;1-256, |)
Sequence 1: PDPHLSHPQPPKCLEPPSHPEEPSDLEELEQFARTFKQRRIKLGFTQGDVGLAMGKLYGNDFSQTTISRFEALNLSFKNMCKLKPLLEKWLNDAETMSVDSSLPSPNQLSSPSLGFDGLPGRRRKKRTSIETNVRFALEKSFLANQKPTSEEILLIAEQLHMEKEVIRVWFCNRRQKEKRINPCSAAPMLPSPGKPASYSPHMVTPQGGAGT
Sequence 2: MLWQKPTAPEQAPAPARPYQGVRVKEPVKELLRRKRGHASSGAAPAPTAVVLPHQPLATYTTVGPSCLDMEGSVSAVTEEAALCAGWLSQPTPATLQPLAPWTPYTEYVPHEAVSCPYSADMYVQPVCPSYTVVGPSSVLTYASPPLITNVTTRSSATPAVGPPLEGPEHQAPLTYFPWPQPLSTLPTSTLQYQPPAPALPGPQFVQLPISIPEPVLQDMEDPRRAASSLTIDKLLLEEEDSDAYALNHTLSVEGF
Assay: EMSA-SELEX-seq; with BOB1 (ternary complex band); 20 mM Tris-HCl pH 7.6, 140 mM NaCl, 10% glycerol, 0.5 mM EDTA, 0.05% Triton X-100, 0.1 mg/mL BSA, 0.1 mg/mL poly(dI-dC), 5 mM DTT, room temperature, 20 min; high values mean tight binding
Conditions: protein: recombinant;recombinant; copies: 1;1; dsDNA, one strand shown
Could you please report measured binding signal for the items listed next?

Inquiry: Can you share its binding signal? I mean this sequence: ACCACAAT
Reply text: 0.0215 % of ANNNNAAN 8-mers

Inquiry: Can you handle AAGTGAAC next?
Reply text: 0.0388 % of ANNNNAAN 8-mers

Inquiry: Entry ACCACAAA please
Reply text: 0.0198 % of ANNNNAAN 8-mers

Inquiry: And AGAGTAAA ?
Reply text: 0.0512 % of ANNNNAAN 8-mers

Inquiry: Let us now turn to ATGATAAT
Reply text: 0.135 % of ANNNNAAN 8-mers

Inquiry: Also, ACCTAAAT please.
Reply text: 0.0421 % of ANNNNAAN 8-mers

Inquiry: ATGGGAAT ?
Reply text: 0.116 % of ANNNNAAN 8-mers

Inquiry: Query AGTAAAAG next
Reply text: 0.0578 % of ANNNNAAN 8-mers

Inquiry: Now try ATGGTAAC .
Reply text: 0.0429 % of ANNNNAAN 8-mers

Inquiry: Follow-up item: AGCGTAAT
Reply text: 0.0611 % of ANNNNAAN 8-mers

Inquiry: Okay, and AATTTAAC ?
Reply text: 0.0982 % of ANNNNAAN 8-mers

Inquiry: Same lookup for AATGTAAT , please.
Reply text: 0.137 % of ANNNNAAN 8-mers

Inquiry: Next record, please: ACGCTAAC
Reply text: 0.0157 % of ANNNNAAN 8-mers

Inquiry: What do you have for AAACAAAT ?
Reply text: 0.669 % of ANNNNAAN 8-mers

Inquiry: Also AGTATAAG ?
Reply text: 0.0454 % of ANNNNAAN 8-mers

Inquiry: Moving on to AGGAAAAT
Reply text: 0.347 % of ANNNNAAN 8-mers

Inquiry: What about this sequence? ATCGAAAC
Reply text: 0.0215 % of ANNNNAAN 8-mers

Inquiry: Now try ACGGAAAC .
Reply text: 0.0305 % of ANNNNAAN 8-mers

Inquiry: Now give it for ATTGGAAA too.
Reply text: 0.0735 % of ANNNNAAN 8-mers

Inquiry: And AATTGAAA ?
Reply text: 0.0817 % of ANNNNAAN 8-mers

Inquiry: Then AGGGGAAT ?
Reply text: 0.11 % of ANNNNAAN 8-mers

Inquiry: Follow-up entry: AGCAGAAT
Reply text: 0.0561 % of ANNNNAAN 8-mers

Inquiry: Same for AACATAAT
Reply text: 0.071 % of ANNNNAAN 8-mers

Inquiry: Likewise for AACACAAT ?
Reply text: 0.0421 % of ANNNNAAN 8-mers

Inquiry: Now try ATTGTAAT .
Reply text: 0.137 % of ANNNNAAN 8-mers

Inquiry: Also ACCAGAAA , if possible.
Reply text: 0.0157 % of ANNNNAAN 8-mers

Inquiry: // next record ATCTAAAT
Reply text: 0.123 % of ANNNNAAN 8-mers

Inquiry: Also check AAGGGAAA
Reply text: 0.136 % of ANNNNAAN 8-mers

Inquiry: Next sequence: ACATAAAG
Reply text: 0.0759 % of ANNNNAAN 8-mers

Inquiry: Now the same for ATCCTAAA
Reply text: 0.0421 % of ANNNNAAN 8-mers

Inquiry: Then what about the sequence ATCACAAT ?
Reply text: 0.0487 % of ANNNNAAN 8-mers

Inquiry: Queued: ATCCCAAC
Reply text: 0.014 % of ANNNNAAN 8-mers

Inquiry: And AGGTAAAT ?
Reply text: 0.391 % of ANNNNAAN 8-mers

Inquiry: Would you mind doing AGAAAAAG as well?
Reply text: 0.0421 % of ANNNNAAN 8-mers

Inquiry: One more sequence: ACGTAAAG
Reply text: 0.0479 % of ANNNNAAN 8-mers

Inquiry: Same lookup for AACAAAAC , please.
Reply text: 0.0636 % of ANNNNAAN 8-mers

Inquiry: Another sequence to look at: ATCCTAAT
Reply text: 0.0693 % of ANNNNAAN 8-mers

Inquiry: Query ACTTAAAC next
Reply text: 0.0355 % of ANNNNAAN 8-mers

Inquiry: Also ATGGAAAG , if possible.
Reply text: 0.129 % of ANNNNAAN 8-mers

Inquiry: For AACGGAAG then?
Reply text: 0.0206 % of ANNNNAAN 8-mers

Inquiry: Here is the next sequence: ATGTGAAT
Reply text: 0.134 % of ANNNNAAN 8-mers

Inquiry: Record: AAGCTAAT
Reply text: 0.0644 % of ANNNNAAN 8-mers

Inquiry: Another sequence: ATCTAAAA
Reply text: 0.0669 % of ANNNNAAN 8-mers

Inquiry: Query ATCGCAAC next
Reply text: 0.0239 % of ANNNNAAN 8-mers

Inquiry: Another sequence: ACACTAAA
Reply text: 0.0173 % of ANNNNAAN 8-mers

Inquiry: Ok, now AGATGAAC
Reply text: 0.0256 % of ANNNNAAN 8-mers

Inquiry: Entry to check: AGAGAAAA
Reply text: 0.0504 % of ANNNNAAN 8-mers

Inquiry: Next: AGGCAAAC
Reply text: 0.0817 % of ANNNNAAN 8-mers

Inquiry: Then what about the sequence ATTATAAA ?
Reply text: 0.0801 % of ANNNNAAN 8-mers

Inquiry: What do you get for AATAGAAT ?
Reply text: 0.121 % of ANNNNAAN 8-mers

Inquiry: Continue with AAGGAAAG
Reply text: 0.0644 % of ANNNNAAN 8-mers

Inquiry: How about AGAACAAG ?
Reply text: 0.0231 % of ANNNNAAN 8-mers

Inquiry: Next sequence up: ACGGTAAG
Reply text: 0.0413 % of ANNNNAAN 8-mers

Inquiry: And what about the sequence ATGGGAAG ?
Reply text: 0.0735 % of ANNNNAAN 8-mers

Inquiry: Item: AATGAAAT
Reply text: 0.121 % of ANNNNAAN 8-mers

Inquiry: Ok, now ACAAGAAG
Reply text: 0.0322 % of ANNNNAAN 8-mers

Inquiry: Also check AGTCTAAA
Reply text: 0.0504 % of ANNNNAAN 8-mers

Inquiry: Moving on to the next sequence: ATATGAAC
Reply text: 0.0528 % of ANNNNAAN 8-mers

Inquiry: One more sequence: AAAACAAG
Reply text: 0.0751 % of ANNNNAAN 8-mers

Inquiry: Then what about the sequence ACTCGAAT ?
Reply text: 0.0504 % of ANNNNAAN 8-mers

Inquiry: Next entry: AAACAAAG
Reply text: 0.0892 % of ANNNNAAN 8-mers

Inquiry: Another sequence: ACTTAAAG
Reply text: 0.0462 % of ANNNNAAN 8-mers

Inquiry: Entry AACTGAAG please
Reply text: 0.0338 % of ANNNNAAN 8-mers

Inquiry: And the next one, AGCCCAAG ?
Reply text: 0.0124 % of ANNNNAAN 8-mers

Inquiry: Now give it for ATTCTAAT too.
Reply text: 0.152 % of ANNNNAAN 8-mers

Inquiry: And then AGCCGAAC , what is it?
Reply text: 0.014 % of ANNNNAAN 8-mers

Inquiry: Subsequent entry: ATATCAAT
Reply text: 0.0776 % of ANNNNAAN 8-mers

Inquiry: Now the same for ATGACAAC
Reply text: 0.0355 % of ANNNNAAN 8-mers

Inquiry: For ATCGTAAT then?
Reply text: 0.0768 % of ANNNNAAN 8-mers

Inquiry: Entry to check: ACTAAAAA
Reply text: 0.0388 % of ANNNNAAN 8-mers

Inquiry: // repeat for ACCAAAAA and report
Reply text: 0.0256 % of ANNNNAAN 8-mers

Inquiry: AGAATAAT , same question.
Reply text: 0.122 % of ANNNNAAN 8-mers

Inquiry: Quick one: ATGTAAAT
Reply text: 3.57 % of ANNNNAAN 8-mers

Inquiry: Item: AAACTAAT
Reply text: 0.0925 % of ANNNNAAN 8-mers

Inquiry: Subsequent entry: ACAATAAG
Reply text: 0.0396 % of ANNNNAAN 8-mers

Inquiry: Would you mind doing AACTTAAC as well?
Reply text: 0.0248 % of ANNNNAAN 8-mers

Inquiry: Please do the same for ACTGTAAT as well.
Reply text: 0.0504 % of ANNNNAAN 8-mers

Inquiry: Let us now turn to ACCGTAAG
Reply text: 0.0281 % of ANNNNAAN 8-mers

Inquiry: Then what about the sequence AATCAAAT ?
Reply text: 0.301 % of ANNNNAAN 8-mers

Inquiry: Please give the result for AAAATAAT too.
Reply text: 0.155 % of ANNNNAAN 8-mers

Inquiry: Consider next the sequence AACGAAAG in the same way.
Reply text: 0.0264 % of ANNNNAAN 8-mers

Inquiry: Same thing, different sequence: ATTCCAAC
Reply text: 0.0223 % of ANNNNAAN 8-mers

Inquiry: What about AAAGCAAG ?
Reply text: 0.0421 % of ANNNNAAN 8-mers

Inquiry: Param item: AATACAAA
Reply text: 0.121 % of ANNNNAAN 8-mers

Inquiry: How about this sequence: ACCTGAAT
Reply text: 0.0438 % of ANNNNAAN 8-mers

Inquiry: Request: ATCACAAA
Reply text: 0.0438 % of ANNNNAAN 8-mers

Inquiry: Request: AATTGAAT
Reply text: 0.125 % of ANNNNAAN 8-mers

Inquiry: Repeat for the following sequence: AGATTAAA
Reply text: 0.071 % of ANNNNAAN 8-mers

Inquiry: Param item: AGTACAAA
Reply text: 0.0446 % of ANNNNAAN 8-mers

Inquiry: Moving on to the next sequence: ATGTTAAC
Reply text: 0.0586 % of ANNNNAAN 8-mers

Inquiry: Same lookup for ACGGCAAT , please.
Reply text: 0.0289 % of ANNNNAAN 8-mers
